Values compiled from PubChem BioAssay (NCI).

Field: TGI. Provide a value for each of the compounds that follow.
system: SK-MEL-2 melanoma; test: NCI tumour cell line growth inhibition, 48 h

Bench note: what TGI did `O=C1c2ccccc2C(=O)c2c(Nc3ccc4c5c(cccc35)C(=O)c3ccccc3-4)cccc21` show?
> 100 µM

Bench note: what TGI did `COC(=O)N1CCc2c(nc(N(C)CCO)[nH]c2=O)C1` show?
> 100 µM

Bench note: what TGI did `O=c1cc2ccccc2nn1Cc1cccc(Cl)c1` show?
> 100 µM

Bench note: what TGI did `CC(C)[C@H](CO)Nc1nc(Nc2ccc(C(=O)NCCNS(=O)(=O)c3cccc4c(N(C)C)cccc34)c(Cl)c2)c2ncn(C(C)C)c2n1` show?
7.73 µM

Bench note: what TGI did `CS/C1=C(\c2ccc(C)cc2)N(c2ccccc2)C(=O)C(=O)N(c2ccccc2)/C(c2ccc(C)cc2)=C(/SC)SS1` show?
> 100 µM

Bench note: what TGI did `COc1c(C)c2c(c(=O)c3c(C)cccc3n2C)c2c1c(=O)c1c(C)cccc1n2C` show?
> 10 µM

Bench note: what TGI did `O=C(CO)CC(=O)C(=O)Nc1ccccc1` show?
> 100 µM

Bench note: what TGI did `CC(=O)[CH-]C(=O)c1ccccc1.CC(=O)[CH-]C(=O)c1ccccc1.CC1(C)C2CCC1(C)C([O-])C2.CC1(C)C2CCC1(C)C([O-])C2.[Ti+4]` show?
29.6 µM

Bench note: what TGI did `N#Cc1c(NN)nc(NN)c(C#N)c1-c1ccccc1` show?
> 100 µM

Bench note: what TGI did `O=C(Nc1cc(Cl)cc(Cl)c1)c1ccc(NC2=C(Cl)C(=O)N(Cc3ccc(Cl)cc3Cl)C2=O)cc1` show?
43.9 µM

Bench note: what TGI did CCC(CO)Nc1nc(NCc2ccccc2O)c2ncn(C(C)C)c2n1 (stereo not drawn) show?
5.83 µM

Bench note: what TGI did `COc1ccc(C(=O)Cc2c(C(=O)c3ccccc3)c3ccccc3n2C(=O)c2ccccc2)cc1` show?
> 100 µM

Bench note: what TGI did `O=C1/C(=C/c2ccccc2)CN(C(=O)c2cccnc2)C/C1=C\c1ccccc1` show?
20.6 µM
